Hey, just so you know, these numbers are from patent US10093630B2.

target of assay: ABHD6 (Mus musculus, UniProt Q8R2Y0)
Construct: Proteomes (mouse brain membrane fraction or cell lysates); from tissue; host or cells: mouse brain membrane fraction (or cell lysates, not specified)
Sequence (Q8R2Y0 whole entry): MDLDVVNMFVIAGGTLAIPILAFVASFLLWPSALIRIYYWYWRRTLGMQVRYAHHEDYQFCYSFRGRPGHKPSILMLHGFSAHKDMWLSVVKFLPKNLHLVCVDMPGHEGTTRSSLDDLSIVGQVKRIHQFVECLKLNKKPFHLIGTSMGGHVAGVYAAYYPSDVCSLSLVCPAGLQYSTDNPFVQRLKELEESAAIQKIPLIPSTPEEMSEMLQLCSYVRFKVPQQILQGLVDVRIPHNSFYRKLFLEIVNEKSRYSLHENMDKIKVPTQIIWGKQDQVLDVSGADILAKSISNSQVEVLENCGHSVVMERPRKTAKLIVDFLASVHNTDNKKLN
method summary: In vitro competitive activity-based protein profiling (gel-based, FP-Rh or HT-01 probe)
Type: biochemical
experimental conditions: mouse brain membrane fraction or cell lysates, 30 min preincubation at 37° C.; read-out: Mouse (IC50 value, nM) ABHD6
property label: IC50

Which measured IC50 value corresponds to CC(C)c1cnn(C(=O)N2CCN(Cc3c(N4CCCC4)cccc3C(F)(F)F)CC2)c1 ?
100 to 1000 nM

Which measured IC50 value corresponds to CCN(Cc1cccc(Cl)c1)C(=O)n1cc(C#N)cn1 ?
> 1000 nM

Which measured IC50 value corresponds to O=C(N1CCN(Cc2ccc3c(c2)OCO3)CC1)n1cc(-c2ccccc2)cn1 ?
100 to 1000 nM

Which measured IC50 value corresponds to Cc1cc(-c2ccccc2)ccc1CN1CCN(C(=O)n2cc(C(F)(F)F)cn2)CC1 ?
100 to 1000 nM

Which measured IC50 value corresponds to O=C(c1cnn(C(=O)N2CCN(C(c3ccc(Cl)cc3)c3ccc(Cl)cc3)CC2)c1)N1CCOCC1 ?
100 to 1000 nM

Which measured IC50 value corresponds to O=C(N1CCN(Cc2cccc(N3CCCC3)c2)CC1)n1cc(C(F)(F)F)cn1 ?
< 100 nM

Which measured IC50 value corresponds to CCN(Cc1ccc(N2CCOCC2)cc1)C(=O)n1cc(C#N)cn1 ?
> 1000 nM

Which measured IC50 value corresponds to Cc1cc(N2CCOCC2)ccc1CN1CCN(C(=O)n2cc(Cl)cn2)CC1 ?
100 to 1000 nM

Which measured IC50 value corresponds to O=C(N1CCN(C(c2ccc(Cl)cc2)c2ccc(Cl)cc2)CC1)n1cc(C(F)(F)F)cn1 ?
100 to 1000 nM

Which measured IC50 value corresponds to CCN(Cc1ccc(OC)cc1)C(=O)n1cc(C(F)(F)F)cn1 ?
> 1000 nM

Which measured IC50 value corresponds to O=C(N1CCN(Cc2ccccc2F)CC1)n1cc(C(F)(F)F)cn1 ?
< 100 nM

Which measured IC50 value corresponds to O=C(N1CCN(Cc2ccccc2Cl)CC1)n1cc(C(F)(F)F)cn1 ?
< 100 nM

Which measured IC50 value corresponds to CCN(Cc1ccc(N2CCOCC2)cc1)C(=O)n1cc(C(F)(F)F)cn1 ?
> 1000 nM

Which measured IC50 value corresponds to CN(Cc1cccc(-c2ccncc2)c1)C(=O)n1cc(-c2ccccc2)cn1 ?
100 to 1000 nM

Which measured IC50 value corresponds to CCN(Cc1ccc(Cl)cc1)C(=O)n1cc(C(F)(F)F)cn1 ?
> 1000 nM

Which measured IC50 value corresponds to O=C(N1CCN(Cc2ccc(C(F)(F)F)cc2N2CCCC2)CC1)n1cc(Cl)cn1 ?
100 to 1000 nM

Which measured IC50 value corresponds to CCN(Cc1cccc(N2CCOCC2)c1)C(=O)n1cc(Cl)cn1 ?
> 1000 nM

Which measured IC50 value corresponds to O=C(N1CCN(Cc2ccccc2C(F)(F)F)CC1)n1cc(C(F)(F)F)cn1 ?
< 100 nM
